experimental_endpoint: IC50 (nM)
Field format: number, assumed nM, no unit text.

State its IC50 on Muscarinic acetylcholine receptor M3 (Homo sapiens): CCCCN1C(=O)C(CC2CCCCC2)NC(=O)C12CCN(Cc1ccc3c(c1)OCCO3)CC2 (stereo unspecified)
Sequence (P20309 whole entry): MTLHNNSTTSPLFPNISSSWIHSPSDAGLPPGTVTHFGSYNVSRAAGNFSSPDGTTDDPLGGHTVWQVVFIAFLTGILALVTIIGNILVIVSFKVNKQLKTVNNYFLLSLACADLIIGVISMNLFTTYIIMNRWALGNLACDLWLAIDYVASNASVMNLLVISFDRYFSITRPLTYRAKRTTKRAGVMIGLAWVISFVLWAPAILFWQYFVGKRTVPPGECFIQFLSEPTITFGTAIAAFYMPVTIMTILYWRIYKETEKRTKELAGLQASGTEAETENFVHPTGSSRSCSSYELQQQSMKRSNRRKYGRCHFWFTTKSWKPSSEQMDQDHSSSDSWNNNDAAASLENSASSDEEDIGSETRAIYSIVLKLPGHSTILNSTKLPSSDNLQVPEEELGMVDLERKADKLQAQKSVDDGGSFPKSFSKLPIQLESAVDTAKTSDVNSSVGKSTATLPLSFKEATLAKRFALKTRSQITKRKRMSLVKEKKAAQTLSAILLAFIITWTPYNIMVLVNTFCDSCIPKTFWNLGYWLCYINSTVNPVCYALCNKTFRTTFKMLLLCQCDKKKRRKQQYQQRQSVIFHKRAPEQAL
2070

###

molecular target: C-C chemokine receptor type 5 (Homo sapiens, UniProt P51681); test: Inhibition of radio-isotope labeled MIP1-alpha binding to human recombinant CCR5
Sequence (P51681 whole entry): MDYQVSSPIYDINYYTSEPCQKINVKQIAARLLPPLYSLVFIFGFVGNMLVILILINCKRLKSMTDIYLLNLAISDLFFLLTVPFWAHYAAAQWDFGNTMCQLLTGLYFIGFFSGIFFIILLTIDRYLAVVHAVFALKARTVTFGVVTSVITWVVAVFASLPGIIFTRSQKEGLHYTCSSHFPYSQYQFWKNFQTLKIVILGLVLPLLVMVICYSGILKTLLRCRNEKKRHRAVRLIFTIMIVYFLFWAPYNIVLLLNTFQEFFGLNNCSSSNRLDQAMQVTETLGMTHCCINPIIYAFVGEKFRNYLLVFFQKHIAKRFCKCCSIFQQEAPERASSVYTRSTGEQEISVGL
For each of the compounds below, state its IC50.
Lab book: enter the figure in nM, no units written.

// fetch C-C chemokine receptor type 5 (Homo sapiens, UniProt P51681) IC50 for CCCN1C(=O)[C@H](CC2CCCCC2)NC(=O)C12CCN(CCCCCCc1ccccc1)CC2
610

Notebook entry, C-C chemokine receptor type 5 (Homo sapiens, UniProt P51681) assay: IC50 of CCCCN1C(=O)C(CC(C)C)NC(=O)C12CCN(Cc1ccc(Oc3ccccc3)cc1)CC2 (stereo unspecified) = ?
83

Item: CCCCN1C(=O)C(CC2CCCCC2)NC(=O)C12CCN(Cc1ccc3c(c1)OCCO3)CC2 (stereo unspecified) Test system: C-C chemokine receptor type 5 (Homo sapiens, UniProt P51681) Read-out: IC50 Value: ?
2.5

Give recorded IC50 with C-C chemokine receptor type 5 (Homo sapiens, UniProt P51681) for the following compound: CCCCN1C(=O)C(CC(C)C)NC(=O)C12CCN(Cc1ccccc1)CC2 (stereo unspecified)
560

Under C-C chemokine receptor type 5 (Homo sapiens, UniProt P51681): IC50 value of CCCCN1C(=O)C(CC(C)C)NC(=O)C12CCN(CCCCCCc1ccccc1)CC2 (stereo unspecified) ?
38

Give the reported IC50 for CCCN1C(=O)C(CC(C)C)NC(=O)C12CCN(Cc1ccc(Oc3ccccc3)cc1)CC2 (stereo unspecified) (system: C-C chemokine receptor type 5 (Homo sapiens, UniProt P51681)).
17

Form: Entry = CCCCN1C(=O)C(CC(C)C)NC(=O)C12CCN(Cc1ccc3c(c1)OCCO3)CC2 (stereo unspecified) | System = C-C chemokine receptor type 5 (Homo sapiens, UniProt P51681) | IC50 = ____
20

Record CCCN1C(=O)[C@@H](CC2CCCCC2)NC(=O)C12CCN(CCCCCCc1ccccc1)CC2 : what is its IC50 with C-C chemokine receptor type 5 (Homo sapiens, UniProt P51681)?
860

Please provide the recorded IC50 for CCCCN1C(=O)C(CC2CCCCC2)NC(=O)C12CCN(Cc1ccc(OC)cc1)CC2 (stereo unspecified) , tested on C-C chemokine receptor type 5 (Homo sapiens, UniProt P51681).
4.5

Hi! What's the reported IC50 for C=CCOc1ccc(CN2CCC3(CC2)C(=O)NC(CC2CCCCC2)C(=O)N3CCCC)cc1 (stereo unspecified) on C-C chemokine receptor type 5 (Homo sapiens, UniProt P51681)?
11

Short answer please: IC50, C-C chemokine receptor type 5 (Homo sapiens, UniProt P51681), entry CCCCN1C(=O)C(CC2CCCCC2)NC(=O)C12CCN(Cc1ccc(Oc3ccccc3)cc1)CC2 (stereo unspecified)
6.1

###

biological target: Sigma non-opioid intracellular receptor 1 (Homo sapiens); experiment: Binding affinity to sigma receptor
Sequence (Q99720 whole entry): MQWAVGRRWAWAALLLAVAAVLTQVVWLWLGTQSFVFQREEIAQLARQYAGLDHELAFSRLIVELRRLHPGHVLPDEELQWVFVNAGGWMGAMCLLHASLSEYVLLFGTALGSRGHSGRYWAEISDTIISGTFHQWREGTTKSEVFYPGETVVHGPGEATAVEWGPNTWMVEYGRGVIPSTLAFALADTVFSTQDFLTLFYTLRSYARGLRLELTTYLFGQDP
experimental_endpoint: IC50 (nM)
Output spec: scalar in nM, unitless text.

Data request, read-out IC50, for CCCCN1C(=O)C(CC2CCCCC2)NC(=O)C12CCN(Cc1ccc3c(c1)OCCO3)CC2 (stereo unspecified)
183
